pKi: −log10 of the molar value.
Here, molecules appear alongside pKi reported for D(2) dopamine receptor (Homo sapiens, UniProt P14416) in the literature.
value_kind: pKi

Solved cases below.
CCc1cc(Cl)c(OC)c(C(=O)NC[C@@H]2CCCN2)c1O = 8.65
CC(C)(C)NC(=O)N[C@H]1CC[C@H](CCN2CCc3ccccc3C2)CC1 = 6.61

P = CCCN1CCO[C@@H]2c3cc(C(=O)NCc4ccc(OC)cc4)ccc3CC[C@H]21
Q = CC(C)c1ccccc1OCCN1CCC(NS(=O)(=O)c2cccc(F)c2)CC1
R = CCCN(CCN1CCN(c2ccccc2)CC1)C1CCc2ccc(N)cc2C1 (stereo unspecified)
S = Cc1cc(OCCCN2CCC(c3noc4cc(F)ccc34)CC2)ccc1CN1CCOCC1
QUERY: Form: Sort by [pKi] Order [ ascending ] Field: ranking. Enter the labels in the order requested.
RESULT: P, R, Q, S
(P: 5.47, R: 6.20, Q: 6.99, S: 8.51)

P = CCCCCNC(=O)/N=C(\N)NCCCc1sc(N)nc1C
Q = Oc1ccc2c(c1)CCCNCCc1ccccc1C2
QUERY: Identify the entry with the smaller pKi: P or Q . Indicate your choice by writing its label.
RESULT: Q
(Q: 6.07, P: 6.35)

P = N#Cc1ccccc1N1CCN(CNC(=O)c2ccc(Cl)cc2)CC1
Q = OC1(c2ccc(F)cc2)CCN(Cc2c[nH]c3ccccc23)CC1
QUERY: Consider P and Q . Which of these has its pKi at a higher number? Indicate your choice by writing its label.
RESULT: Q

====

Here, compounds appear alongside pKi reported for D(2) dopamine receptor (Homo sapiens, UniProt P14416) in the literature.
pKi: −log10 of the molar value.
value_kind: pKi

Solved cases below.
C(=C\c1cc(CCCCN2CCN(c3ccccc3)CC2)on1)/c1ccccc1 = 5.01
c1ccc(N2CCN(C[C@H]3CC[C@H](Nc4ncccn4)CC3)CC2)cc1 = 8.24
O=S(=O)(c1cccc2ncccc12)N1CCC(CCN2CCN(c3cccc(Cl)c3Cl)CC2)CC1 = 7.44
FC(F)(F)c1cccc(N2CCN(CCCOC3(c4ccccn4)CCOC4(CCCC4)C3)CC2)n1 (stereo not given) = 5.88
O=C1CCc2ccc(OCCCCN3CCN(c4cccc5c4CCCO5)CC3)nc2N1 = 9.00

I = O=c1[nH]c2ccc3c(c2[nH]1)O[C@@H](CNCc1ccccc1)CC3
II = Cc1ccc2c(c1)C(C1=C[C@H](C)N(C)CC1)=Nc1cc(Cl)ccc1N2
III = CCCN(CCC)CC1CCc2sccc2C1 (stereo not given)
QUERY: Form: Sort by [pKi] Order [ ascending ] Field: ranking. Enter the labels in the order requested.
RESULT: III, II, I

1 = Cc1ccc(C(=O)NCN2CCN(c3ccccc3Cl)CC2)cc1
2 = CCC(Sc1ccccc1)c1nc(N)nc(N2CCN(C)CC2)n1 (racemic)
QUERY: Identify the entry with the smaller pKi: 1 or 2 . Indicate your choice by writing its label.
RESULT: 2

====

Here, molecules appear alongside pKi reported for D(2) dopamine receptor (Homo sapiens, UniProt P14416) in the literature.
pKi: −log10 of the molar value.
value_kind: pKi

Solved cases below.
Clc1ccc(N2CCCN(Cc3c[nH]c4ncccc34)CC2)cc1 = 6.01
COc1ccc(N2CCN(CCCN3C(=O)CCc4ccccc43)CC2)cc1 = 4.68
CC(C)(C)OC(=O)NCCN1CCC(O)(c2ccc(Cl)cc2)CC1 = 5.56
OCC1(c2ccc(Cl)cc2)CCN(Cc2c[nH]c3ccccc23)CC1 = 5.63
COc1ccc2[nH]cc(CCNCc3ccc(-c4ccc(Cl)cc4)o3)c2c1 = 6.24

1 = CN1CCc2cc(O)c(O)cc2C1Cc1ccccc1Br (stereo unspecified)
2 = Cc1cc(Cl)ccc1OCc1nc(N)nc(N2CCN(C)CC2)n1
QUERY: Identify the entry with the smaller pKi: 1 or 2 . Indicate your choice by writing its label.
RESULT: 2
(2: 5.36, 1: 6.54)
